Target: T1, CD19 (UniProt P15391 20-556)
T1 chain: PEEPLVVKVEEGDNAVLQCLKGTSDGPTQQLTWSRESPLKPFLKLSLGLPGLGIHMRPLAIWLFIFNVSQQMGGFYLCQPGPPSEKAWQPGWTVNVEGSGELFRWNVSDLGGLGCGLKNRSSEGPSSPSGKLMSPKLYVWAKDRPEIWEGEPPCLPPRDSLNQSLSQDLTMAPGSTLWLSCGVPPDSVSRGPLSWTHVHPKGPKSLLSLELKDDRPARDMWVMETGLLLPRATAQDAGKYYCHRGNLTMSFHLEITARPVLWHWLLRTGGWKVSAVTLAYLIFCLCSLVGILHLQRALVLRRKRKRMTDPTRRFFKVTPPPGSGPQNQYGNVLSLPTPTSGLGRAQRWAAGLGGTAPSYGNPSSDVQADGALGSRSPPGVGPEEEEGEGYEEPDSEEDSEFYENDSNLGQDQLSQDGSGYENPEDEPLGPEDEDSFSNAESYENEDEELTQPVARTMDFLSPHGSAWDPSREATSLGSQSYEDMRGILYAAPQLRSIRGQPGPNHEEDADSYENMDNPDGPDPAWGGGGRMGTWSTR
Assay: flow cytometry cell binding; FIG. 8
pEC50: −log10 of the molar value.
Reported metric: pEC50

INSERT INTO measurements (binder, observed_result) VALUES
  ('hFMCL2/H4z (antibody, V domains shown) VH: QVQLQESGPGLVKPSETLSVTCTVSGVSLPDYGVSWIRQPPGKGLEWLGVIWGSETTYYNSSLKSRLTISKDNSKNQVSLKMSSLTAADTAVYYCAKHYYYGGSYAMDYWGQGTLVTVSS VL: DIQMTQSPSSLSASVGDRVTITCRASQDISKYLNWYQQKPGKAPKLLIYHTSRLHSGVPSRFSGSGSGTDYTLTISSLQPEDFATYYCQQGATLPYTFGQGTKLEIK', 7.88);
